# Assayed Target: High affinity choline transporter 1 (Homo sapiens) (UniProt Q9GZV3)
# Sequence (Q9GZV3 whole entry, looked up): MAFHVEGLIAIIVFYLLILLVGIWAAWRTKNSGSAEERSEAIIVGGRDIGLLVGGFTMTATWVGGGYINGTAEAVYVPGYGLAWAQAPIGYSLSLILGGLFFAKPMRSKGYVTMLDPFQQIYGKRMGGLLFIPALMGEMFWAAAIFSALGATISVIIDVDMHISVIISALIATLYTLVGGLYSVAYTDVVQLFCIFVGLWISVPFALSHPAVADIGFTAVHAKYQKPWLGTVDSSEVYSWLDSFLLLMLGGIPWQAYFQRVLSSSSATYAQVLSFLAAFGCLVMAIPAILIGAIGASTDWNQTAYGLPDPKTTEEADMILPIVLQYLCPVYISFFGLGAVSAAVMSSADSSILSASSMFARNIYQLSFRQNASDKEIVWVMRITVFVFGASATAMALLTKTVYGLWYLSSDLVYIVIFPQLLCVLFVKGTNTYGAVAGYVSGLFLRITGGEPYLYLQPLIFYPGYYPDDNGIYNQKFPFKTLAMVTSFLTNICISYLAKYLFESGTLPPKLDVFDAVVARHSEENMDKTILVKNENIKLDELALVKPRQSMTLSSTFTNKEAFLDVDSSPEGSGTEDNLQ
# Measurement Description: inhibitors of human choline transporter CHT (AID 488975)
# Run Conditions: CHT-expressing cells, membrane potential dye, choline response, at 10 µM
Hit rate of the full screen: of about 310,000 compounds, about 2,600 (0.84%) were called active.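 Rule for the calls: active = B-score over 3 SD under the library average, and starting fluorescence ratio not unusually high; inactive = the rest.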 Shown is part of a subset that was picked to be rich in actives.
Result category, one only: T (active), F (inactive)

Query: Identify the outcome logged in this assay for the molecule shown: CCN(CC)CCC(c1cc(OC)c(OC)c(OC)c1)c1c(OC)cc(OC)c2c(-c3ccccc3)cc(=O)oc12 (stereo not given)
Reply: F

Query: Identify the outcome logged in this assay for the molecule shown: O=[N+]([O-])c1ccccc1Nc1ccc(O)cc1
Reply: T

Query: Identify the outcome logged in this assay for the molecule shown: CCC(CC)C(=O)N1CC(=O)Nc2ccc(Br)cc2C1c1ccccc1 (stereo not given)
Reply: F

Query: Identify the outcome logged in this assay for the molecule shown: CCOC(=O)N1CCN(CC(=O)c2c(C)[nH]c3ccccc23)CC1
Reply: F

Query: Identify the outcome logged in this assay for the molecule shown: CCCCCCCNC(=O)C1(CC2CC(c3cccc(Br)c3)=NO2)CCN(C(=O)c2cc(OCC)c(OCC)c(OCC)c2)CC1 (stereo not given)
Reply: F

Query: Identify the outcome logged in this assay for the molecule shown: Oc1c(Cl)cc(Cl)c(Cl)c1Cc1c(O)c(Cl)cc(Cl)c1Cl
Reply: T

Query: Identify the outcome logged in this assay for the molecule shown: CC(=O)Nc1ccc(C(=O)Nc2cccc(S(=O)(=O)NC3=NCCC3)c2)cc1
Reply: F

Query: Identify the outcome logged in this assay for the molecule shown: CCN(CC(=O)Nc1c(F)cccc1F)C(=O)C1CCC1
Reply: F

Query: Identify the outcome logged in this assay for the molecule shown: Cc1[nH]c2ccccc2c1C(=O)CN1CCCC(C)C1 (stereo not given)
Reply: T

Query: Identify the outcome logged in this assay for the molecule shown: S=C(Nc1cccc(Cl)c1)Nc1ccc2c(c1)OCCO2
Reply: F
